B1: EEHEE_rd4_0763 (parent)
chain: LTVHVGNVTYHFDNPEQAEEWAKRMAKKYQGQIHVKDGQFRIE

Variants of: B1
measurementDescription: folding stability dG (cDNA display proteolysis); higher = more stable
assayConditions: PBS, room temperature
Below, each entry is listed with its recorded folding stability dG.
Quick note: give the figure in kcal/mol, leave out the unit.

Field: example entries. Status: answers known.
mutantcode=V35H endpointunit=kcal/mol testvalue=1.21
mutantcode=K23S endpointunit=kcal/mol testvalue=1.16
mutantcode=W21I endpointunit=kcal/mol testvalue=0.395
mutantcode=A18P endpointunit=kcal/mol testvalue=-0.12
mutantcode=K36H endpointunit=kcal/mol testvalue=1.75

Param item = Q32V ; retrieve measured folding stability dG.
2.02

Query: folding stability dG; subject: E43G
1.26

Name the recorded folding stability dG for F40G .
0.985

Bench note: what folding stability dG did P15D show?
1.17

I am curious: what folding stability dG value has been reported for D13H ?
1.37

Which folding stability dG value belongs to D37M ?
0.773
